System: IGROV1 ovarian
Experiment: NCI tumour cell line growth inhibition, 48 h; in the data active = GI50 below about 0.43 µM; inactive = the rest
Would you mind answering with one of these outcomes? label 1 (active), label 0 (inactive)

The examples below pair each entry with its known result.
{"columns": ["Compound", "Class assignment"],
 "data": [
  ["CCC[CH2][Sn]([Cl])([CH2]CCC)[CH2]CCC", "label 1"],
  ["COc1ccc2[nH]cc(C3(c4c[nH]c5ccc(OC)cc45)C(=O)Nc4ccc(F)cc43)c2c1", "label 0"],
  ["Cn1cc(C2=C(c3cn(CCCCO)c4ccccc34)C(=O)NC2=O)c2ccccc21", "label 0"],
  ["O=C1/C(=C/c2cccc(Cl)c2Cl)N=C(c2ccccc2)N1C1CC1", "label 0"],
  ["O=C(CC1(O)C(=O)N(Cc2ccccc2)c2ccc(F)cc21)c1ccc(C(=O)NCC2CCC3(CC2)OOC2(CCCCC2)OO3)cc1 (centres undefined)", "label 1"],
  ["CN(C)CC[PH+](c1ccccc1)c1ccccc1.CN(C)CC[PH+](c1ccccc1)c1ccccc1.[Cl-].[Pd+2]", "label 0"]
]}

// param item: CCCN1C(=O)N(CCC)C2C1NC(=S)N2/N=C/C=C/c1ccccc1OC (centres undefined) ; yields the recorded call label 0

And O=c1cc(-c2cccc3ccccc23)[nH]c2ncccc12 ? label 1

And O=C1C=CC(=O)c2cc3cc(CBr)ccc3cc21 ? label 0

----------
Test system: HL-60(TB) leukemia
Assay: NCI tumour cell line growth inhibition, 48 h
# cutoff 7 µM applies to TGI; >= gives 1 (yes), < gives 0 (no)

The examples below pair each entry with its known result.
{"columns": ["Compound", "Class assignment"],
 "data": [
  ["N#Cc1c(N)n(-c2cccc(C(=O)O)c2)c(=O)c2cc([N+](=O)[O-])ccc12", "1 (yes)"],
  ["CN(C)CCCC12CCCCC1=Nc1ccccc12 (stereo not given)", "1 (yes)"],
  ["CC[C@H]1[C@@H]2C=C[C@@H]3[C@H]4C/C=C\\C(=O)NCCC[C@@H]5NC(=O)/C(=C(O)/C=C/[C@@H]4C[C@@H]3[C@H]2C[C@H]1C)C5=O", "0 (no)"]
]}

Is reported TGI greater than or equal to 7 µM here: O=C1C=CC(=O)c2cc3cc(CBr)ccc3cc21 0 (no)

----------
Tested on: SK-MEL-28 melanoma
Assay: NCI tumour cell line growth inhibition, 48 h
# TGI listing for each entry below

See these solved cases before continuing.
{"columns": ["Compound", "TGI"],
 "data": [
  ["O=C1/C(=C/c2ccc(Cl)cc2)CCC1CCN1CCOCC1 (stereo unspecified)", "> 100 µM"],
  ["C/C=C(/C)C(=O)O[C@@H]1CCN2CC[C@H](COC(=O)/C(=C/C)CO)C12 (stereo partly specified)", "> 100 µM"],
  ["CN(CC(=O)O)c1ncc2c(n1)CCCC2", "> 100 µM"],
  ["N#Cc1c(N)nc2n[nH]c(N)c2c1-c1ccc(Cl)cc1", "> 100 µM"],
  ["O=C(Nc1ccncc1)C(=O)c1cn(S(=O)(=O)c2ccc(F)cc2)c2ccccc12", "36.2 µM"]
]}

Proceeding to the next compound to report its TGI.
Lab note: need TGI for Cc1c2c(C#N)nccc2c(C)c2c1c1ccccc1n2Cc1ccccc1 on SK-MEL-28 melanoma, anyone have it? > 100 µM
